Each entry below carries its recorded IC50.
- target_or_system: Tyrosine-protein phosphatase non-receptor type 1 (Homo sapiens)
- Sequence (P18031 whole entry): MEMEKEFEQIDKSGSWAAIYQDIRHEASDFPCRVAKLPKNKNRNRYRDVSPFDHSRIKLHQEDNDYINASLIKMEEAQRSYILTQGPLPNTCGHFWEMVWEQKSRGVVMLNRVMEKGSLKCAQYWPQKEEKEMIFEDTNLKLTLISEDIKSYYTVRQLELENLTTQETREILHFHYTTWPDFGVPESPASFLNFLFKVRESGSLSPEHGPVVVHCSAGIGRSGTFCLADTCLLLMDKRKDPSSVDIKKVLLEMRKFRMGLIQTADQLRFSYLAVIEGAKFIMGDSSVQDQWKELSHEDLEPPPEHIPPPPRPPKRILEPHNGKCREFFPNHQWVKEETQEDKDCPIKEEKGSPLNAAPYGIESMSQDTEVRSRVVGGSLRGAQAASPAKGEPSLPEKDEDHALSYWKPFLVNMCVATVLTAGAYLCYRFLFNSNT
- assay_comment: Inhibition of PTP1B (unknown origin)
- condition: read-out: IC50
Reply with just the number (in µM).

Examples from the recorded data:
[
  {
    "structure_string": "COc1ccc(C(=O)OCCCCC#Cc2ccc(C(=O)OC3CSSC3)cc2)c(OC)c1",
    "unit_text": "µM",
    "IC50": 4.27
  },
  {
    "structure_string": "O=C(OC1CSSC1)c1ccc(OCCCCCCOC(=O)c2cc(Br)ccc2Br)cc1",
    "unit_text": "µM",
    "IC50": 8.85
  },
  {
    "structure_string": "O=C(OC1CSSC1)c1ccc(C#CCCOC(=O)c2cc(Br)ccc2Br)cc1",
    "unit_text": "µM",
    "IC50": 2.73
  },
  {
    "structure_string": "O=C(OCCCCC#Cc1ccc(C(=O)OC2CSSC2)cc1)c1cccc(F)c1",
    "unit_text": "µM",
    "IC50": 5.18
  },
  {
    "structure_string": "O=C(OC1CSSC1)c1ccc(C#CCCCCOC(=O)c2cc(Br)ccc2Br)cc1",
    "unit_text": "µM",
    "IC50": 0.59
  }
]

// query Query (compound): O=C(OC1CSSC1)c1ccc(OCCOC(=O)c2cc(Br)ccc2Br)cc1 ; field requested: IC50
// result 7.26

// query Then what about the compound O=C(OCCCCC#Cc1ccc(C(=O)OC2CSSC2)cc1)c1ccc(F)cc1 ?
// result 4.68

Cited source: ChEMBL document CHEMBL3400144
